Tested on: MDA-MB-468 breast
Assay: NCI-60 one-dose screen, 48 h (100 = growth as untreated, 0 = no growth, -100 = all killed)
Settings: 10 µM unless noted
About 83,000 compounds went through this panel and 20% of them were active in at least one assay; those are over-represented in the sample as a whole.
Measure name: growth (%)
Note: unit % is implicit; provide only the numeric part.

Nc1nc2ccc(-c3nc4ccc5[nH]ncc5c4c4c3CCC4)cc2s1
-5.96
O=c1c2cc(F)ccc2sc2c(NCCN3CCCCC3)nc3ccccc3c12
6.41
O=C(O)C(Cc1ccccc1)N1C(=O)/C(=C/C(Cl)=C/c2ccc([N+](=O)[O-])cc2)SC1=S (stereo not given)
-12.8

Q: Annotate the compound `Cc1ccc(Nc2cc(N)nc(N)n2)cc1` with its measured growth.
Ans: 92.2

Q: State its growth: `COc1cc2c(cc1OC)C(=O)/C(=C/c1cc(C)c(O)c(C)c1)S2`
Ans: 11.4

###

Tested on: NCI-H522 lung
Assay: NCI-60 one-dose screen, 48 h
Details: 10 µM
About 83,000 compounds went through this panel and 20% of them were active in at least one assay; those are over-represented in the sample as a whole. The source made the active and inactive calls. Rule for the calls: active = growth percent below 10; inactive = the rest.
// one of active, inactive, no free text

O=C(c1ccc(F)cc1)C(c1c[nH]c2ccccc12)c1c[nH]c2ccccc12
inactive
CC1[C@H]2[C@H](C[C@H]3[C@@H]4CC=C5c6sc(Nc7cccc(Cl)n7)nc6CC[C@]5(C)[C@H]4CC[C@@]32C)O[C@]12CC[C@@H](C)CO2 (stereo partly drawn)
inactive
Cc1ccc2sc3c(c2c1)Oc1nc[nH]c(=O)c1C3c1cccc(F)c1 (stereo not drawn)
inactive
O=C(Nc1ccc(OCC(=O)c2ccc(Cl)cc2)cc1)Nc1ccc(Cl)c(C(F)(F)F)c1
active
COc1ccc2[nH]cc(-c3nc(N)nnc3-c3cn(C)c4ncc(Br)cc34)c2c1
active

Q: Short answer needed: outcome of this test for `O=C(Nc1ccc(OCc2ccc(Cl)cc2)cc1)Nc1ccc(Cl)c(C(F)(F)F)c1` ?
Ans: active

Q: Outcome logged for `Cc1ccc2c(c1)C(=O)/C(=C/c1ccc([N+](=O)[O-])cc1)S2` in this assay:
Ans: inactive

Q: Give the logged outcome of this assay for the following molecule: `COc1ccc(C(=O)COc2ccc(NC(=O)Nc3ccc(Cl)c(C(F)(F)F)c3)cc2)cc1`
Ans: active

###

Tested on: SR leukemia
Experiment: NCI-60 one-dose screen, 48 h (100 = growth as untreated, 0 = no growth, -100 = all killed)
Conditions: 10 µM
About 83,000 compounds went through this panel and 20% of them were active in at least one assay; those are over-represented in the sample as a whole.
Measure name: growth (%)
Write the number in % without appending the unit.

Examples with answers:
O=C1NC(=S)S/C1=C\c1cn(-c2ccccc2)nc1-c1ccc([N+](=O)[O-])cc1
24.5
COc1ccc(Cc2nn(CC(=O)N/N=C/c3ccc([N+](=O)[O-])cc3)c(=O)c3c(C)noc23)cc1
93.2
CC1(C)CC[C@]2(C(=O)O)CC[C@]3(C)C(=CCC4[C@@]5(C)C[C@@H](O)[C@@H]6OC(c7cccc(F)c7)OC[C@@]6(C)C5CC[C@]43C)C2C1 (some centres undefined)
22.4
Cn1cc(-c2nnc(N)nc2-c2c[nH]c3ccccc23)c2cc(Br)cnc21
8.61
COc1ccc(Cc2nn(CC(=O)N/N=C/c3ccc(Br)cc3)c(=O)c3c(C)noc23)cc1
38.5
Cn1cc(-c2cc3nc(-c4c[nH]c5ccccc45)cc(N)n3n2)c2cc(Cl)ccc21
-8.96
O=C1NC2C=CC=CC2/C1=C1/SC(=S)N(C2CC(=O)N(c3ccc(Br)cc3)C2=O)C1=O (centres undefined)
67.9
O=C(c1ccc(F)cc1)C(c1c[nH]c2ccccc12)c1c[nH]c2ccccc12
10.5

Would you kindly look at the next entry?
Q: Answer with reported growth of `COc1ccc2[nH]cc(-c3nc(N)nnc3-c3cn(C)c4ncc(Br)cc34)c2c1`
Ans: 3

###

Test system: MDA-MB-468 breast
Experiment: NCI-60 one-dose screen, 48 h (100 = growth as untreated, 0 = no growth, -100 = all killed)
Conditions: 10 µM unless noted
About 83,000 compounds went through this panel and 20% of them were active in at least one assay; those are over-represented in the sample as a whole.
Think of 90% as a floor: if growth stands on it or above, it is TRUE; beneath it, FALSE.

Illustrative cases are given below, each with its answer.
N#Cc1cnn(-c2nc3c(Cl)cccc3s2)c1N
FALSE
Cn1ccnc1C(=O)/C=C/C=C/c1ccc(C(=O)Nc2ccc(F)cc2)cc1
FALSE
COC(=O)c1sccc1-c1cc(O)c(C(=O)Nc2ccccc2)s1
FALSE

Q: Textbook exercise: given the entry CC(O)C(F)(F)C(F)(F)C(F)(F)F (stereo unspecified) , state whether its growth is greater than or equal to 90%.
Ans: TRUE

Q: API: above_or_equal(metric=growth, cutoff=90%) for item `CCN(CC)CCCNc1ccc(C)c2sc3ccccc3c(=O)c12`
Ans: FALSE

Q: Tell me whether growth is at least 90% here: `O=C(O)c1ccccc1Cc1ccc2c(c1)CCCC2`
Ans: TRUE

Q: Given the entry CC1(C)CC2(C)CC(=O)C1C(C(=O)O)C2C(=O)O (stereo unspecified) , answer whether its growth meets or surpasses 90%.
Ans: TRUE

Q: Can `CCN(CC)CCNC(=O)c1c(C)[nH]c(/C=C2\C(=O)Nc3ccc(F)cc32)c1C` be said to have growth at or above 90%?
Ans: FALSE

Q: Determine whether this compound has growth no lower than 90%: `COc1ccc(-c2nn(-c3cccc(Cl)c3)cc2-c2cc(-c3ccccc3)nc(N)n2)cc1`
Ans: FALSE

Q: Entry `Cc1noc(C)c1-c1ccc2nc(NC(=O)[C@H]3CCN(C#N)C3)cn2c1` : is its growth no less than 90%?
Ans: FALSE

###

System: MDA-MB-468 breast
Assay: NCI-60 one-dose screen, 48 h (100 = growth as untreated, 0 = no growth, -100 = all killed)
Conditions: 10 µM unless noted
About 83,000 compounds went through this panel and 20% of them were active in at least one assay; those are over-represented in the sample as a whole.
Measure name: growth (%)
Express the result in % but write the number alone.

Below, each entry is followed by its recorded growth result.
CC(C)(C)OC(=O)N1CCc2c(sc3ncnc(N/N=C/c4ccccc4Br)c23)C1
71.5
CCCCCCCC[Si](OCC)(OCC)OCC
97.5
CC[C@H](Nc1nc(N)nc(C)c1C#N)c1nc2cccc(NCCCCCC(=O)NO)c2c(=O)n1-c1ccccc1
11.7
Cc1nc2ccc(Nc3nc(NCCN4CCOCC4)nc(Nc4ccc(F)cc4)n3)cc2n1Cc1ccccc1
14
CSCC[C@@H]1C(=O)N(C)[C@H](C(C)(C)C)N1C(=O)c1ccccc1
105
N#Cc1c(-c2ccc(F)cc2)nc(N/N=C/c2cccc(O)c2)nc1N1CCOCC1
81.1
CCN1C[C@@H](C)n2c(c(O)c3c(=O)n(Cc4ccc(F)c(Cl)c4)nc(C(=O)NC)c32)C1=O
45
c1ccc(C2CC(c3cccc(Nc4ccncc4)c3)=NN2c2ccccc2)cc1 (centres undefined)
24.2

Q: Using the record for `COc1ccc(C(=O)N2NC(=O)/C(=C/c3ccccc3F)N=C2c2ccccc2)cc1` , state its measured growth.
Ans: 105

###

Tested on: MDA-MB-468 breast
Experiment: NCI-60 one-dose screen, 48 h
Conditions: 10 µM unless noted
About 83,000 compounds went through this panel and 20% of them were active in at least one assay; those are over-represented in the sample as a whole. The source made the active and inactive calls. Rule for the calls: active = growth percent below 10; inactive = the rest.
Your reply should match one of these outcome classes. label 1 (active), label 0 (inactive)

Nc1nc(=O)c2ccccc2s1
label 0
Nc1nc(N)c2c(n1)NC(c1ccc(Cl)cc1)CC(c1ccc(Nc3nc(NCCO)nc(Nc4ccc(Cl)cc4)n3)cc1)=N2 (stereo not drawn)
label 1
O=C(Nc1cccc2[nH]c(C(F)(F)F)nc12)c1cc(Cl)ccc1Cl
label 0
COc1ccc2c(c1)c(-c1noc(-c3cn(C)c4ncc(F)cc34)n1)cn2C
label 0
Cc1ncc(C(=O)Nc2ccc(CN3CCN(C)CC3)c(C(F)(F)F)c2)cc1C#Cc1cnc(N)c2ncccc12
label 0
C#C[C@]1(O)CC[C@H]2[C@@H]3CC=C4c5sc(Nc6nc(C)cc(OC)n6)nc5CC[C@]4(C)[C@H]3CC[C@@]21C
label 0
C=C(CBr)[C@@H]1CC[C@]2(C(=O)O)CC[C@]3(C)[C@H](CC[C@@H]4[C@@]5(C)CCC(=O)C(C)(C)[C@@H]5CC[C@]43C)[C@@H]12
label 0

Q: I'd appreciate the recorded outcome for `CCCCN1C(=O)c2cccc3c(-c4ccc5c(c4)ncn5C4CCCCC4)ccc(c23)C1=O` from this test.
Ans: label 0

Reference source: PubChem BioAssay (NCI)
